B1: ETS1 (parent)
chain: YVRDRADLNKDKPVIPAAALAGYT

Variants of: B1
assayRemarks: protein stability index of a GFP-peptide fusion (GPS, HEK-293T) (PSI 1-6); higher = more stable;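 note: lentivirally expressed fusions sorted by FACS into six bins by GFP to DsRed ratio, PSI derived from sequencing read proportions per bin multiplied by bin number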
conditionSummary: c terminus: a fixed tail appended
Assign class by protein stability index: not lower than 2 means 1.0; lower than 2 means 0.0.

Use these answered entries as a reference point.
Problem: Determine whether this variant has protein stability index no lower than 2: "D7H"
Result: 1.0

Problem: Quick check: does "R3A" have protein stability index greater than or equal to 2?
Result: 1.0

Problem: Reported protein stability index reaches at least 2 for "K12S" ?
Result: 1.0

Problem: Please indicate if the recorded protein stability index for "A19F" meets or exceeds 2.
Result: 1.0

Problem: Is protein stability index at least 2? Consider "N9V"
Result: 1.0

Problem: Kindly determine if protein stability index recorded for "D7S" is above or exactly 2.
Result: 0.0

Problem: Test whether the variant "A6N" records protein stability index of 2 or higher.
Result: 1.0

Problem: // inclusive: protein stability index at least 2? input: "D7Q"
Result: 1.0

Problem: Is protein stability index at least 2? Consider "N9Y"
Result: 1.0

Problem: Dear colleague, could you confirm whether "D4G" has protein stability index at or above 2?
Result: 1.0

***
Problem: protein stability index >= 2 for "L8Q" ?
Result: 0.0

Problem: Given "K12A" , state whether its protein stability index is at least 2.
Result: 1.0

Problem: Say whether "A19V" shows protein stability index of 2 or more.
Result: 1.0

Problem: Textbook exercise: given the entry "A17W" , state whether its protein stability index is greater than or equal to 2.
Result: 1.0

Problem: Is reported protein stability index greater than or equal to 2 here: "T24G"
Result: 0.0

Problem: Determine whether this variant has protein stability index no lower than 2: "G22H"
Result: 0.0

Problem: Given the entry "L8N" , answer whether its protein stability index meets or surpasses 2.
Result: 1.0

Problem: Hello, I need to know if "R5K" has measured protein stability index not below 2. Thanks!
Result: 1.0

Problem: Does the reported protein stability index for "A21M" fall at or above the 2 mark?
Result: 0.0

Problem: Determine whether this variant has protein stability index no lower than 2: "V14D"
Result: 1.0

Problem: State whether the measured protein stability index reaches 2, counting equality as reaching it, for "P16T"
Result: 1.0
